Recorded values, source ChEMBL document CHEMBL1155378.

- Procedure Details: Cytotoxicity against human HL2/3 cells after 24 hrs by XTT proliferation assay
- Format: cell-based
- Measurement Context: hl2/3, 24 h
Measured CC50, listed per entry for reference.

[
  {
    "Mol": "O=C(O)c1cccc(Cc2ccc3ccn(-c4cccc(C(=O)O)c4)c3c2)c1",
    "Metric Name": "CC50",
    "Result Value": "> 400 µM"
  },
  {
    "Mol": "O=C(O)c1cccc(Cc2ccc3ccn(Cn4ccc5ccc(Cc6cccc(C(=O)O)c6)cc54)c3c2)c1",
    "Metric Name": "CC50",
    "Result Value": "80 µM"
  },
  {
    "Mol": "COc1cccc(-n2ccc3ccc(Cc4cccc(C(=O)O)c4)cc32)c1",
    "Metric Name": "CC50",
    "Result Value": "> 100 µM"
  }
]

Q) Sample `COc1ccc(Cn2ccc3ccc(Cc4cccc(C(=O)O)c4)cc32)cc1` — what was its CC50?
A) 100 µM
